pKi: −log10 of the molar value.
# merged literature set: pKi with 5-hydroxytryptamine receptor 2A (Homo sapiens, UniProt P28223)
Quick rule: pKi of at least 7 means Y, below that means N.

Look over these answered cases.
Oc1ccc(-c2ccc(CNCCc3c[nH]c4ccccc34)o2)cc1 :: N
CC1(O)c2ccccc2-c2ccc(C(=O)N=C(N)N)cc21.Cl (stereo unspecified) :: N
CN(C)CCSc1nc(-c2ccccc2)cs1 :: N
Cc1cccc(N)c1C(=O)NN1c2ccc(Cl)cc2N=C(N2CCN(C)CC2)c2ccccc21 :: Y

In the following, a different compound is considered.
Q: Answer whether pKi of CN1CCN(CCc2ccc(OCCCN3CCC(c4noc5cc(F)ccc45)CC3)cc2)CC1 is greater than or equal to 7.
A: Y
